All values here come from patent US20110178143A1.

# Subject of test: alpha2B receptor (Homo sapiens, UniProt P18089)
# Construct: expressed in transfected cells; host or cells: NIH-3T3 cells
# Sequence (P18089 1-450): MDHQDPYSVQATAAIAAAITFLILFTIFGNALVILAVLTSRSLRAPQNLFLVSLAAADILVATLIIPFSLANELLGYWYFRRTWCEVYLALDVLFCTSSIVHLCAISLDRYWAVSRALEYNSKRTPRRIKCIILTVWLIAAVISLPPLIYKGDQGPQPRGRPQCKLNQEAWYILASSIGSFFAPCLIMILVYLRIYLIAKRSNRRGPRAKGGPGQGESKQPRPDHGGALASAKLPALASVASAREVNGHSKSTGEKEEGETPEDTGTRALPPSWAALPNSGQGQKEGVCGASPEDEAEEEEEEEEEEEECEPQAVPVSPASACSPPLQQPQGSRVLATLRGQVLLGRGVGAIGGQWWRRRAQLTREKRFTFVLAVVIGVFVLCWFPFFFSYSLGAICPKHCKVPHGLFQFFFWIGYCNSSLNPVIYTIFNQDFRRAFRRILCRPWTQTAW
# Assay info: Receptor Selection and Amplification Technology (RSAT) assay, alpha 2B
# Format: cell-based
# Condition parameters: read-out: Alpha 2B intrinsic activity (IA), in parentheses
Measured attribute: Emax (%)
Numbers only, in %.

[[record]]
compound = "Cc1cccc2c1CC[C@@H]2NC1=NCCS1"
measured_attribute = "Emax"
observed_value = 138


For each of the compounds below, note its Emax.
1. Cc1cccc2c1CC[C@@H]2NC1=NCCN1
2. CC1CC(NC2=NCCS2)c2ccccc21 (stereo not drawn)
3. Cc1ccc2c(c1)C(NC1=NCCN1)CC2 (stereo not drawn)

1: 125; 2: 99; 3: 34

For each of the compounds below, note its Emax.
1. Brc1cccc2c1CCC2NC1=NCCN1 (stereo not drawn)
2. c1ccc2c(c1)CCC2NC1=NCCN1 (stereo not drawn)
3. Cc1cccc2c1CC[C@H]2NC1=NCCN1
4. c1ccc2c(c1)CC[C@@H]2NC1=NCCN1
5. Cc1cccc2c1CCC2NC1=NCCN1 (stereo not drawn)
6. c1ccc2c(c1)CCC2NC1=NCCS1 (stereo not drawn)
7. c1ccc2c(c1)CC(NC1=NCCN1)C2

[71, 93, 106, 82, 98, 107, 36]

Bench note: what Emax did CC1CC(NC2=NCCO2)c2ccccc21 (stereo not drawn) show?
112
